Target sequence: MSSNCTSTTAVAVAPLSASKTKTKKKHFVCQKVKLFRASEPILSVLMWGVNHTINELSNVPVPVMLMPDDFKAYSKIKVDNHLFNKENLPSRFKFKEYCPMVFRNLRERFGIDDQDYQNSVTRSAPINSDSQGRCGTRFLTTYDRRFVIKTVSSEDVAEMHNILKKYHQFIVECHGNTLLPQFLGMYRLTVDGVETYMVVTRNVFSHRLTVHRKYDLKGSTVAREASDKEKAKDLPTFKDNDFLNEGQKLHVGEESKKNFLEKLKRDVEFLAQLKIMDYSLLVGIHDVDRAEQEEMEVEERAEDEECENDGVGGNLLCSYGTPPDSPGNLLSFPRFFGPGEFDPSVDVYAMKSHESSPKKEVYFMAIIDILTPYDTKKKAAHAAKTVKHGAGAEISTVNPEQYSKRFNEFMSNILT
Quick list: IC50 per entry.

| Smiles notation | IC50 |
| --- | --- |
| CCN(CC)CCN(C)c1cncc(Nc2ncc3c(n2)C(C)(C)Oc2cc(N4CCCC4=O)ccc2-3)c1 | 100 to 1000 nM |
| CN(C)CCOc1cncc(Nc2ncc3c(n2)C(C)(C)Oc2cc(N4CCCC4=O)ccc2-3)c1 | 100 to 1000 nM |
| CNC(=O)N1CCOc2ncc(Nc3ncc4c(n3)C(C)(C)Oc3cc(N5C(=O)CC[C@H]5C)ccc3-4)cc21 | 1 to 10 nM |
| Cc1cnnn1-c1ccc2c(c1)OC(C)(C)c1nc(Nc3cnc4c(c3)N(C(=O)CN(C)C)CCO4)ncc1-2 | 1 to 10 nM |

Data provenance is patent US11498929B2.
